Reported values of MFI for individual entries
# ASSAYED TARGET: human MS4A4A (human, UniProt Q96JQ5 1-239)
# TEST PROTOCOL: FACS, U937-huMS4A4A, 5 ug/ml
Would you mind answering with just the numeric figure?

See these solved cases before continuing.
- BINDER: "anti-MS4A4A antibody 4A-314 (antibody, V domains shown, full human IgG) VH: QVQLVQSGAEVKKPGASVKVSCKASGYTFTNYWMQWVRQAPGQGLEWMGTTLPGHGDTRYAQKFQGRVTMTRDTSTSTVYMELSSLRSEDTAVYYCAREEVYYGFRSYWYFDVWGRGTLVTVSS VL: EIVLTQSPATLSLSPGERATLSCRASESVDNYGVSRMNWYQQKPGQAPRLLIYGASNQGSGIPARFSGSGSGTDFTLTISSLEPEDFAVYYCQQSKEVPPTFGGGTKVEIK"
  MFI: 15300
- BINDER: "anti-MS4A4A antibody 4A-377 (antibody, V domains shown, full human IgG) VH: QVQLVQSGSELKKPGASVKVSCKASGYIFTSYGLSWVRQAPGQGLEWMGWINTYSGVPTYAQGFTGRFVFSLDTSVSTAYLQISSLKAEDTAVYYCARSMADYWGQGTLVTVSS VL: DVVMTQSPLSLPVTLGQPASISCKSSRSLLYSGGKTYLSWFQQRPGQSPRRLIYLVSKLDSGVPDRFSGSGSGTDFTLKISRVEAEDVGVYYCWQGIDFHQTFGGGTKVEIK"
  MFI: 12200

// field: MFI; key: anti-MS4A4A antibody 4A-362 (antibody, V domains shown, full human IgG) VH: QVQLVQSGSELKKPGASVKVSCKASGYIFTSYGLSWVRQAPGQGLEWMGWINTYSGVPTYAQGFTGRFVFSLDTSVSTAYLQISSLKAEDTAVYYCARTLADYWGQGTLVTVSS VL: DVVMTQSPLSLPVTLGQPASISCKSSQSLLYSDGKTYLSWFQQRPGQSPRRLIYLVSRLDSGVPDRFSGSGSGTDFTLKISRVEAEDVGVYYCWQGIDFHQTFGGGTKVEIK ; value = 10000
